Tested on: Mycolicibacterium smegmatis
assay-info: Antitubercular activity against Mycobacterium smegmatis ATCC 19420 assessed as growth inhibition at 1 to 100 ug/mL after 7 days by resazurin reduction test
Format: functional
condition-label: ATCC 19420, 168 h
Quick reference: MIC of the listed items.

smiles-code	value-operator	MIC [µg/mL]
Cc1c(CNC(=O)CCc2c[nH]c3ccc(Cl)cc23)c2cc(OC(F)(F)F)ccc2n1C	=	10
O=C(CCc1c[nH]c2ccc(Cl)cc12)NCCCc1c[nH]c2ccc(Cl)cc12	>	100
Cn1cc(CCC(=O)NCc2c[nH]c3ccc(Cl)cc23)c2cc(Cl)ccc21	=	10
Cn1cc(CCC(=O)NCCCc2c[nH]c3ccc(Cl)cc23)c2cc(Cl)ccc21	=	10
O=C(CCc1c[nH]c2ccc(Cl)cc12)NCCCc1c[nH]c2ccc(OC(F)(F)F)cc12	>	100
Cc1c(CCCNC(=O)CCc2cn(C)c3ccc(Cl)cc23)c2cc(OC(F)(F)F)ccc2n1C	>	100
Cn1cc(CCCNC(=O)CCc2cn(C)c3ccc(Cl)cc23)c2cc(Cl)ccc21	=	10
Cn1cc(CCC(=O)NCc2c[nH]c3ccc(OC(F)(F)F)cc23)c2cc(Cl)ccc21	=	1
O=C(CCc1c[nH]c2ccc(Cl)cc12)NCc1c[nH]c2ccc(Cl)cc12	=	1
CO[C@H]1/C=C/O[C@@]2(C)Oc3c(C)c(O)c4c(O)c(c(/C=N/N5CCN(C)CC5)c(O)c4c3C2=O)NC(=O)/C(C)=C\C=C\[C@H](C)[C@H](O)[C@@H](C)[C@@H](O)[C@@H](C)[C@H](OC(C)=O)[C@@H]1C	=	1.5
Cc1c(CNC(=O)CCc2cn(C)c3ccc(Cl)cc23)c2cc(OC(F)(F)F)ccc2n1C	=	10
Cn1cc(CCC(=O)NCc2cn(C)c3ccc(Cl)cc23)c2cc(Cl)ccc21	>	100
